tested on: 782815-120-R-J1-PDC complex spheroid viability; assay: Anticancer human tumor 782815-120-R-J1-PDC patient-derived colon adenocarcinoma cell line growth inhibition [RAS]; details: second compound 0.0316 µM; first compound 0.0316 µM; stronger effect = lower value
Could you please report measured viability, T/C for the items listed next?
One number for each entry, in %.

Dear colleague, could you send me viability, T/C for each of the items below? Thanks.
1. NC1c2ccccc2OC12CCN(c1cnc3c(N4CCCc5ncccc54)n[nH]c3n1)CC2 (configuration not stated) + C=CC(=O)N1CCN(c2nc(OCC3CCCN3C)nc3c(F)c(-c4nc(N)cc(C)c4C(F)(F)F)c(Cl)cc23)C(C)C1
2. CC(=O)OC12COC1CC(O)C1(C)C(=O)C(O)C3=C(C)C(OC(=O)C(O)C(NC(=O)OC(C)(C)C)c4ccccc4)CC(O)(C(OC(=O)c4ccccc4)C21)C3(C)C (configuration not stated) + C#Cc1c(F)ccc2cc(O)cc(-c3ncc4c(N5CC6CCC(C5)N6)nc(OCC56CCCN5CC(F)C6)nc4c3F)c12

Result string:
1. 96.4
2. 34.4

* * *

For each entry below, report its viability, T/C value.
Test system: 782815-120-R-J1-PDC complex spheroid viability
Test: Anticancer human tumor 782815-120-R-J1-PDC cell line growth inhibition [RAS];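 also: spheroids exposed to compounds for 7 days before reading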;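 as to viability, T/C: 100% = DMSO vehicle control viability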
Details: second compound 0.01 µM; first compound 3.16 µM; stronger effect = lower value
From the text: RAS pathway inhibitors in Combinations in Complex Spheroids A high-throughput screen of multi-cell type tumor spheroids was designed to identify active combinations of RAS pathway inhibitors and targeted small molecules. Complex spheroids include a stromal component modeled by human endothelial cells (HUVEC) and fibroblasts modeled by human mesenchymal stem cells (MSCs). […] Compounds. […] If the clinical Cmax for an agent had not been determined, the highest concentration tested was 10 microM. […]
One number for each entry, in %.

Reference set (6 entries):
CC(Nc1ccc2c(c1)OCCn1cc(N3C(=O)OCC3C(F)F)nc1-2)C(N)=O (stereo not drawn) + C=CC(=O)N1CCN(c2nc(OCC3CCCN3C)nc3c(F)c(-c4nc(N)cc(C)c4C(F)(F)F)c(Cl)cc23)C(C)C1 ... 103
NC1c2ccccc2OC12CCN(c1cnc3c(N4CCCc5ncccc54)n[nH]c3n1)CC2 (stereo not drawn) + C=CC(=O)N1CCN(c2nc(OCC3CCCN3C)nc3c(F)c(-c4nc(N)cc(C)c4C(F)(F)F)c(Cl)cc23)C(C)C1 ... 93.8
CC(C)NCC(C(=O)N1CCN(c2ncnc3c2C(C)CC3O)CC1)c1ccc(Cl)cc1 (stereo not drawn) + C=CC(=O)N1CCN(c2nc(OCC3CCCN3C)nc3c(F)c(-c4nc(N)cc(C)c4C(F)(F)F)c(Cl)cc23)C(C)C1 ... 101
C[C@@H](NC(=O)c1ncnc(N)c1Cl)c1ncc(C(=O)Nc2cc(C(F)(F)F)c(Cl)cn2)s1 + C=CC(=O)N1CCN(c2nc(OCC3CCCN3C)nc3c(F)c(-c4nc(N)cc(C)c4C(F)(F)F)c(Cl)cc23)C(C)C1 ... 80.8
CC1(O)CCCC1n1c(=O)c(C(F)F)cc2cnc(NC3CCN(S(C)(=O)=O)CC3)nc21 (stereo not drawn) + C=CC(=O)N1CCN(c2nc(OCC3CCCN3C)nc3c(F)c(-c4nc(N)cc(C)c4C(F)(F)F)c(Cl)cc23)C(C)C1 ... 52.1
CC(=O)OC12COC1CC(O)C1(C)C(=O)C(O)C3=C(C)C(OC(=O)C(O)C(NC(=O)OC(C)(C)C)c4ccccc4)CC(O)(C(OC(=O)c4ccccc4)C21)C3(C)C (stereo not drawn) + C=CC(=O)N1CCN(c2nc(OCC3CCCN3C)nc3c(F)c(-c4nc(N)cc(C)c4C(F)(F)F)c(Cl)cc23)C(C)C1 ... 25

Hey, quick one: what's viability, T/C for each of these?
1. Cc1nc(N2CCC3(CC2)COC(C)C3N)c(CO)nc1Sc1ccnc(N)c1Cl (stereo not drawn) + C=CC(=O)N1CCN(c2nc(OCC3CCCN3C)nc3c(F)c(-c4nc(N)cc(C)c4C(F)(F)F)c(Cl)cc23)C(C)C1
2. CCC(CC)c1cc(NC2CCC(N)C2)n2nccc2n1 (stereo not drawn) + C=CC(=O)N1CCN(c2nc(OCC3CCCN3C)nc3c(F)c(-c4nc(N)cc(C)c4C(F)(F)F)c(Cl)cc23)C(C)C1

Result string:
1: 104; 2: 30.4

* * *

Give pIC50 for every item shown.
system: 782815-120-R-J1-PDC complex spheroid viability; assay: Anticancer human tumor 782815-120-R-J1-PDC cell line growth inhibition [RAS]; settings: curve of first compound; second compound 0.000949 µM;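 also: spheroids exposed to compounds for 7 days before reading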
Answers are plain numbers, as −log10 of the molar value.

Examples with answers:
CCC(CC)c1cc(NC2CCC(N)C2)n2nccc2n1 (configuration not stated) + CCn1c(-c2cccnc2C(C)OC)c2c3cc(ccc31)N1CCOC(CC(NC(=O)C(C(C)C)N(C)C(=O)C3(F)CCN(C(=O)C#CC(C)(C)N(C)C)CC3)C(=O)N3CCCC(N3)C(=O)OCC(C)(C)C2)C1 ... 5.53
CC1(O)CCCC1n1c(=O)c(C(F)F)cc2cnc(NC3CCN(S(C)(=O)=O)CC3)nc21 (configuration not stated) + CCn1c(-c2cccnc2C(C)OC)c2c3cc(ccc31)N1CCOC(CC(NC(=O)C(C(C)C)N(C)C(=O)C3(F)CCN(C(=O)C#CC(C)(C)N(C)C)CC3)C(=O)N3CCCC(N3)C(=O)OCC(C)(C)C2)C1 ... 5.35

// below: pIC50 requested for another compound
Kindly note the recorded pIC50 for Nc1ccn(C2OC(CO)C(O)C2(F)F)c(=O)n1 (configuration not stated) + CCn1c(-c2cccnc2C(C)OC)c2c3cc(ccc31)N1CCOC(CC(NC(=O)C(C(C)C)N(C)C(=O)C3(F)CCN(C(=O)C#CC(C)(C)N(C)C)CC3)C(=O)N3CCCC(N3)C(=O)OCC(C)(C)C2)C1 , which is 7.53

* * *

System: 782815-120-R-J1-PDC complex spheroid viability
Assay: Anticancer human tumor 782815-120-R-J1-PDC cell line growth inhibition [RAS]; active = viability on the fitted dose curve at most 10% of control; inactive = the rest;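 also: spheroids exposed to compounds for 7 days before reading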
Details: compound 1 µM
From the text: RAS pathway inhibitors in Combinations in Complex Spheroids A high-throughput screen of multi-cell type tumor spheroids was designed to identify active combinations of RAS pathway inhibitors and targeted small molecules. Complex spheroids include a stromal component modeled by human endothelial cells (HUVEC) and fibroblasts modeled by human mesenchymal stem cells (MSCs). […] Compounds. […] If the clinical Cmax for an agent had not been determined, the highest concentration tested was 10 microM. […]
Result category, one only: active, inactive

# example entries with known answers
O=C(c1ccc(F)c(F)c1Nc1ccc(I)cc1F)N1CC(O)([C@@H]2CCCCN2)C1 ... active
NC1c2ccccc2OC12CCN(c1cnc3c(N4CCCc5ncccc54)n[nH]c3n1)CC2 (stereo not drawn) ... inactive

Query string: Answer briefly: the call reported for Cc1nc(N2CCC3(CC2)COC(C)C3N)c(CO)nc1Sc1ccnc(N)c1Cl (stereo not drawn) in this assay.
Result string: inactive

Query string: Recorded call for Nc1ccn(C2OC(CO)C(O)C2(F)F)c(=O)n1 (stereo not drawn) ?
Result string: inactive

Query string: Per the records of this test, what outcome belongs to C#Cc1c(F)ccc2cc(O)cc(-c3ncc4c(N5CC6CCC(C5)N6)nc(OCC56CCCN5CC(F)C6)nc4c3F)c12 (stereo not drawn) ?
Result string: inactive

Query string: Just curious, what result did `C=CC(=O)Nc1cc(Nc2nccc(-c3cn(C)c4ccccc34)n2)c(OC)cc1N(C)CCN(C)C` get here?
Result string: inactive

Query string: Record lookup: outcome of this test for CC(C)NCC(C(=O)N1CCN(c2ncnc3c2C(C)CC3O)CC1)c1ccc(Cl)cc1 (stereo not drawn) ?
Result string: inactive

Query string: Each compound tested received a call. Report the one for CC1(O)CCCC1n1c(=O)c(C(F)F)cc2cnc(NC3CCN(S(C)(=O)=O)CC3)nc21 (stereo not drawn) .
Result string: inactive

Query string: Could you kindly confirm the outcome this assay logged for C=CC(=O)N1CCN(c2nc(OCC3CCCN3C)nc3c(F)c(-c4nc(N)cc(C)c4C(F)(F)F)c(Cl)cc23)C(C)C1 (stereo not drawn) ?
Result string: inactive

Query string: Would you mind telling me which call this test gave `CCN1CCN(Cc2ccc(Nc3ncc(F)c(-c4cc(F)c5nc(C)n(C(C)C)c5c4)n3)nc2)CC1` ?
Result string: inactive

Query string: Hi team, can someone confirm the assay call for CC(Nc1ccc2c(c1)OCCn1cc(N3C(=O)OCC3C(F)F)nc1-2)C(N)=O (stereo not drawn) ?
Result string: inactive

Query string: What outcome does the record of this test show for CCC(CC)c1cc(NC2CCC(N)C2)n2nccc2n1 (stereo not drawn) ?
Result string: inactive

Query string: Can you look up the reported call for CC(=O)OC12COC1CC(O)C1(C)C(=O)C(O)C3=C(C)C(OC(=O)C(O)C(NC(=O)OC(C)(C)C)c4ccccc4)CC(O)(C(OC(=O)c4ccccc4)C21)C3(C)C (stereo not drawn) for me?
Result string: inactive
